Origin of the recorded values: the supplement of paper PMC10567573

B1: TBX5 (parent)
chain: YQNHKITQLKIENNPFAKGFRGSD

variants of: B1; assay: protein stability index of a GFP-peptide fusion (GPS, HEK-293T) (PSI 1-6); higher = more stable; details: c terminus: a fixed tail appended;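 further: lentivirally expressed fusions sorted by FACS into six bins by GFP to DsRed ratio, PSI derived from sequencing read proportions per bin multiplied by bin number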
ENDPOINT: protein stability index
// response body must contain only the number

YQNHKIRQLKIENNPFAKGFRGSD [T7R]    2.48
YQNHGITQLKIENNPFAKGFRGSD [K5G]    2.57
YQNHKITQLKIENNPFAKGFRGSK [D24K]    2.53
YQNHKITQAKIENNPFAKGFRGSD [L9A]    2.83
YQNHKISQLKIENNPFAKGFRGSD [T7S]    2.46
YQNHKITQLKIENNPFAKGFRCSD [G22C]    2.24

Ask: Please give the measured protein stability index for this variant: YQNHKITQLKIENNFFAKGFRGSD [P15F]
Result: 1.96

Ask: What do we get for YQNHKITQLKVENNPFAKGFRGSD [I11V] ?
Result: 2.58

Ask: What do we get for YQNHKITQLKIESNPFAKGFRGSD [N13S] ?
Result: 2.37

Ask: What do we get for YQNHKITQLKIENNPFAKIFRGSD [G19I] ?
Result: 1.85

Ask: What do we get for YQNHKITQLKIENNPFAKGFRGYD [S23Y] ?
Result: 2.55
